- Tested on: K24384-001-R-PDC complex spheroid viability;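 further: spheroids exposed to agents for seven days before luminescence viability reading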
- Assay name: Anticancer human tumor K24384-001-R-PDC patient-derived pancreatic adenocarcinoma cell line growth inhibition
- Setup conditions: curve of compound
Reported endpoint: IC50

Observe how each entry below is paired with its result.
Compound	IC50
O=C(c1cc(Cc2n[nH]c(=O)c3ccccc23)ccc1F)N1CCN(C(=O)C2CC2)CC1	> 10000 nM
CC(C)c1c(-c2ccccc2)nc2c(C#N)c[nH]n2c1=O	> 10000 nM
CCN(c1cc(-c2ccc(CN3CCOCC3)cc2)cc(C(=O)NCc2c(C)cc(C)[nH]c2=O)c1C)C1CCOCC1	> 3000 nM
COc1cc(Nc2ncc3c(n2)-c2ccc(Cl)cc2C(c2c(F)cccc2OC)=NC3)ccc1C(=O)O	> 1000 nM
Nc1ncn(C2CC(O)C(CO)S2)c(=O)n1 (configuration not stated)	> 300 nM
Cn1ncnc1C1c2n[nH]c(=O)c3cc(F)cc(c23)NC1c1ccc(F)cc1 (configuration not stated)	> 100 nM

The compound listed as Nc1ncn(C2CC(O)C(CO)O2)c(=O)n1 (configuration not stated) has a reported IC50 of > 1000 nM
